- Protocol Details: CCTE_Shafer_MEA_acute_cross_correlation_HWHM: CCTE's Neural Acute Assay for Cross Correlation at Half Width at Half Maximum, Shafer Lab (AID 2284026);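 also: percent change per well from pre-dose baseline in spike cross-correlogram half width; hits are a decrease in cross-correlogram half width relative to DMSO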;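 as to outcome: spontaneous network firing of rat primary cortical neurons on multiwell microelectrode arrays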
Calls of active or inactive are those of the source. The calls were made as follows: active = hit-call score of the fitted dose curve at least 0.9, where 1 is the maximum; inactive = score below 0.9.
Give one outcome, nothing more. List: active, inactive

Reference set, count: 3
CNC(=O)ON=CC(C)(C)SC
inactive
C=CCC1=C(C)[C@@H](OC(=O)[C@@H]2[C@@H](C=C(C)C)C2(C)C)CC1=O
active
CO/C=C(/C(=O)OC)c1ccccc1Oc1cc(Oc2ccccc2C#N)ncn1
inactive

Request: Short answer needed: outcome of this test for CCCC1COC(Cn2cncn2)(c2ccc(Cl)cc2Cl)O1 (stereo unspecified) ?
Response: active

Request: Short answer needed: outcome of this test for COP(=S)(OC)Oc1nc(Cl)c(Cl)cc1Cl ?
Response: inactive

Request: Short answer needed: outcome of this test for CCNc1nc(Cl)nc(NC(C)C)n1 ?
Response: active
